- COND: in 1,2-dichloroethane, 273.15 K
QUANTITY MEASURED: solubility (mole fraction)

// recorded solubility (mole fraction) for Oc1ccccc1C=Nc1c(F)cccc1F : 0.105

---

- COND: in chloroform, 288.15 K
QUANTITY MEASURED: solubility (mole fraction)

// recorded solubility (mole fraction) for Oc1ccccc1C=Nc1c(F)cccc1F : 0.203

---

- COND: in 1,2-dichloroethane, 283.15 K
QUANTITY MEASURED: solubility (mole fraction)
No unit in the answer, please; the number alone is enough.

// recorded solubility (mole fraction) for Oc1ccccc1C=Nc1c(F)cccc1F : 0.142

---

- COND: in isopropanol, 303.15 K
QUANTITY MEASURED: solubility (mole fraction)
No unit in the answer, please; the number alone is enough.

// recorded solubility (mole fraction) for Oc1ccccc1C=Nc1c(F)cccc1F : 0.0231

---

- COND: in ethanol, 283.15 K
QUANTITY MEASURED: solubility (mole fraction)
No unit in the answer, please; the number alone is enough.

// recorded solubility (mole fraction) for Oc1ccccc1C=Nc1c(F)cccc1F : 0.00819

---

- COND: in acetonitrile, 283.15 K
QUANTITY MEASURED: solubility (mole fraction)
No unit in the answer, please; the number alone is enough.

// recorded solubility (mole fraction) for Oc1ccccc1C=Nc1c(F)cccc1F : 0.0272

---

- COND: in n-propanol, 288.15 K
QUANTITY MEASURED: solubility (mole fraction)
No unit in the answer, please; the number alone is enough.

// recorded solubility (mole fraction) for Oc1ccccc1C=Nc1c(F)cccc1F : 0.0118

---

- COND: in ethanol, 293.15 K
QUANTITY MEASURED: solubility (mole fraction)
No unit in the answer, please; the number alone is enough.

// recorded solubility (mole fraction) for Oc1ccccc1C=Nc1c(F)cccc1F : 0.0128

The reported measurements were obtained from BigSolDB 2.1.
